Molecular target: T1, soluble human insulin receptor-immunoglobulin heavy chain chimera (human, UniProt P06213 28-956, limits assumed)
T1 construct: extracellular domain; also called sIR-Fc; IR (prepared according to Bass et al., 1996); not shown: immunoglobulin heavy chain constant domains (Bass et al., 1996)
Assay: phage ELISA
The entries below are paired with their reported ratio over background.

{"binder": "LRRQAPVEENFYDWFVRQVSGDRVGG (on phage) [H2CA-3-D7-IGFR]", "ratio over background, ratio": 0.8}
{"binder": "RFDPFYSYFVNLLGASA (on phage) [NNRPγ-4-A7-IR]", "ratio over background, ratio": 1.3}
{"binder": "LGVTDGFYAALGYLIHGVGQF (on phage) [20E2B-3-D11-IGFR]", "ratio over background, ratio": 1.6}
{"binder": "VGTVAGFYDAIAQLVARASRV (on phage) [20E2A-3-C7-ICFR]", "ratio over background, ratio": 1.1}
{"binder": "GGTEVDFYRALERLVRGQLGL (on phage) [20E2B-3-D8-IGFR]", "ratio over background, ratio": 1.6}
{"binder": "GFREGSFYDWFQAQVT (on phage) [E4Dα-2-D11-IR]", "ratio over background, ratio": 3.3}
{"binder": "RGIVAMVEATEVGSDHDPFYHKLSELVQGS (on phage) [B6Hα-2-C7-IR]", "ratio over background, ratio": 1}
{"binder": "LGYQEPFQQNFYDWFVRQVSGAENAG (on phage) [H2CA-3-E8-IGFR]", "ratio over background, ratio": 2.2}
{"binder": "RCQGTGFYTCIQELIGFGDPD (on phage) [20E2B-4-H9-IGFR]", "ratio over background, ratio": 0.9}
{"binder": "QSPVGSSHEDFYDWFFRQVAQSGAHQ (on phage) [H2CA-3-D6-IGFR]", "ratio over background, ratio": 2.2}
{"binder": "SAAQLFFQESFYDWFLRQVAESSQPN (on phage) [H2CA-4-F11-IGFR]", "ratio over background, ratio": 1}
{"binder": "RGCNDDGGKGWSDDPFYHKLSELICGG (on phage) [B6Hα-1-A2-IR]", "ratio over background, ratio": 1}
{"binder": "RQGTGSFYLMLEQLLVGARGP (on phage) [20E2B-4-G11-IGFR]", "ratio over background, ratio": 0.6}
{"binder": "DSVGDNFYQLLESLVGGHGVG (on phage) [20E2B-3-D6-IGFR]", "ratio over background, ratio": 2.6}
{"binder": "FFYRCLSRLLGGQLGSRLGLSCIGD (on phage) [20C-3-E4-IGFR]", "ratio over background, ratio": 1.3}
{"binder": "PVGVQGFYEGLSRLVLGRGGW (on phage) [20E2B-4-F8-IGFR]", "ratio over background, ratio": 0.8}
{"binder": "LRIANLFYQRLWDLAFGGGG (on phage) [20E2B-3-E8-IGFR]", "ratio over background, ratio": 1.5}
{"binder": "GCVVEWQKWHGASDPFYHKLSELGGCS (on phage) [B6Hα-3-F10-IR]", "ratio over background, ratio": 1.9}
{"binder": "GVRAMSFYDALVSVLGLGPSG (on phage) [20E2B-1-A6-IGFR]", "ratio over background, ratio": 1.1}
{"binder": "SSCDGAGHESFYEWFVRQVSGCRSV (on phage) [H2CA-3-C6-IGFR]", "ratio over background, ratio": 1.2}
{"binder": "RGKTAAVIVGRPADPFYHKLSELLQGG (on phage) [B6Hα-3-E8-IR]", "ratio over background, ratio": 1.1}
{"binder": "GCAVVEEAERSRGDPFYHKLSELIQGC (on phage) [B6Hα-3-E7-IR]", "ratio over background, ratio": 1.3}
{"binder": "TFYSCLASLLTGTPQPNRGPWERCR (on phage) [20C-3-G3-IGFR]", "ratio over background, ratio": 1.2}
{"binder": "VEGRGLFYDLLRQLLARRQNG (on phage) [20E2B-3-C6-IGFR]", "ratio over background, ratio": 1.1}
{"binder": "KLHNLMFYYGLQRLVWGAGLG (on phage) [20E23-4-H3-IGFR]", "ratio over background, ratio": 1.1}
{"binder": "RFSTDGFYQYLLALVGGGPVG (on phage) [20E2B-1-A11-IGFR]", "ratio over background, ratio": 1}
{"binder": "EAASLGSQDRNFYDWFVRQVV (on phage) [A6S-2-D11-IR]", "ratio over background, ratio": 13.5}
{"binder": "LSVALSFYDALGQLVAGEGRW (on phage) [20E2A-3-A12-IGFR]", "ratio over background, ratio": 1.1}
